Readings of growth inhibition for the listed compounds
Test: NCI Yeast Anticancer Drug Screen. Data for the sgs1 mgt1 strain (AID 161);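 note: 0% = growth of cultures given vehicle only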
Settings: S. cerevisiae sgs1 mgt1 strain, at 50.0 µM, hits give high values
Compounds without any hit were thinned out: in the full panel of roughly 79,000, 15% have a hit.
Write down the numeric answer in % and omit the unit.

These solved cases illustrate the format of a correct answer.
{"Compound": "O=C(O)c1c[nH]c2cc(OCc3ccc(Br)cc3)ccc2c1=O", "Units": "%", "Number": -1.85}
{"Compound": "CCOC(=O)C(=Cc1ccc(Oc2ccccc2)cc1)C(=O)OCC", "Units": "%", "Number": 22.1}
{"Compound": "O=C(O)c1ccc(OCCOc2ccccc2)c(Cl)c1", "Units": "%", "Number": 61.3}
{"Compound": "Cc1ccc(N)c(C(=O)Nc2ccc(Br)cc2)c1", "Units": "%", "Number": -10.1}
{"Compound": "NCCCC(N)C(=O)O (centres undefined)", "Units": "%", "Number": -33.5}
{"Compound": "CCN(CC)C(=O)c1ccc(C)c(N=NN(C)C)c1", "Units": "%", "Number": -20.9}
{"Compound": "Fc1ccc(-c2nnc(-c3ccccc3)o2)cc1", "Units": "%", "Number": 25.2}
{"Compound": "Cc1ccc(S(=O)(=O)N(CC(O)c2ccccc2)CC(O)c2ccccc2)cc1 (centres undefined)", "Units": "%", "Number": -18.2}

What measured growth inhibition goes with O=C(N/N=C/c1ccc(Cl)c([N+](=O)[O-])c1)C(O)(c1ccccc1)c1ccccc1 ? 12.4

What measured growth inhibition goes with CCOC(=O)C(Cc1cn(C(C)=O)c2ccccc12)P(=O)(OCC)OCC (centres undefined) ? -15.2

What measured growth inhibition goes with COc1ccc(C(C)c2cc3c(cc2OCCO)OCO3)cc1 (centres undefined) ? 44.3

What measured growth inhibition goes with O=C(O)CCNc1ncnc2nc[nH]c12 ? -33.5

What measured growth inhibition goes with NC(=S)NCCN1CCOCC1 ? -1.9

What measured growth inhibition goes with C[N+]1(CC[N+]2(C)CCCC2c2cccnc2)CCCC1c1cccnc1 (centres undefined) ? -16.9

What measured growth inhibition goes with O=S(=O)(O)C(Nc1ccc(Cl)cc1)c1ccccc1 (centres undefined) ? 4.6

What measured growth inhibition goes with CC(C)(O)CCC(C)(C)O ? 41.9

What measured growth inhibition goes with Cc1ccc2nc(N(C)C)nc-2c2[nH]c(=O)[nH]c12 ? -12.2

What measured growth inhibition goes with CCCCCC1CCC(OC(=O)NC)CC1 (centres undefined) ? -0.6

What measured growth inhibition goes with NC(=O)O/N=C/c1ccc(Cl)cc1 ? -13.1

What measured growth inhibition goes with O=C1Nc2c(Cl)cc(Cl)cc2C1=O ? 37.7

What measured growth inhibition goes with CCCCN(CCCC)CC(O)c1c2cccc(Cl)c2cc2c(Cl)cccc12 (centres undefined) ? 78.6

What measured growth inhibition goes with Cn1c(=O)c2[nH]c(CCCCCc3nc4c([nH]3)c(=O)n(C)c(=O)n4C)nc2n(C)c1=O ? -27.3

What measured growth inhibition goes with O=C(O)Cc1ccc2ccccc2c1 ? 20.6

What measured growth inhibition goes with COc1cc(C2SC(N)=Nc3c2c(C)nn3C(=O)c2ccccc2O)ccc1O (centres undefined) ? 22.5

What measured growth inhibition goes with O=C1Cc2c(-c3ccccc3)cc(-c3ccccc3)nc2-c2ccccc2N1 ? 39

What measured growth inhibition goes with C1CSCCSCCCSCCSCCCSCCSCCCSCCSC1 ? 45.9

What measured growth inhibition goes with C=CCOc1cc(NC(=S)c2ccoc2C)ccc1OC ? -10

What measured growth inhibition goes with Clc1ccc2sc3c(c2c1)CCNC3 ? -6.75

What measured growth inhibition goes with c1ccc(-c2ccc(-c3ccccc3)cc2)cc1 ? -15.1

What measured growth inhibition goes with CCC1=C/C(=N/O)C(C)=CC1(C)C(Cl)(Cl)Cl (centres undefined) ? 10

What measured growth inhibition goes with COc1cc(NCc2c(O)ccc3ccccc23)c2ncccc2c1 ? 13.1

What measured growth inhibition goes with Cc1c(F)cccc1NC(=O)OC(C)C ? -0.7

What measured growth inhibition goes with Cc1cc(Cl)ccc1NC(=O)/C(Cc1nc2ccc(C(=O)c3ccccc3)cc2[nH]c1=O)=N/NC(=O)c1ccncc1 ? 1.45

What measured growth inhibition goes with CO/C(=N\N=C\c1cc(OC)ccc1OC)c1ccncc1 ? -23.6

* * *

Test: NCI Yeast Anticancer Drug Screen. Data for the bub3 strain (AID 167)
Conditions: S. cerevisiae bub3 mutant strain, at 50.0 µM, hits give high values
The panel holds about 79,000 compounds, 15% with a hit somewhere; the sample as a whole holds those more often.
Readings of growth inhibition for the listed compounds
Write down the numeric answer in % and omit the unit.

{"Compound": "O=[N+]([O-])c1ccc(-c2csc(N=Nc3c(O)[nH]c4ccccc34)n2)cc1", "Units": "%", "growth inhibition": -31.4}

What measured growth inhibition goes with Cc1cccc(C)c1NC(=O)C1=NC(=S)NC(c2ccccc2)C1c1nc2ccccc2s1 (stereo unspecified) ? -0.85

What measured growth inhibition goes with CCCn1c(CC)nc([N+](=O)[O-])c1Sc1ncn[nH]1 ? -5.6

* * *

Experiment: NCI Yeast Anticancer Drug Screen. Data for the rad50 strain (AID 155);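 note: 0% = growth of vehicle-only cultures of the same strain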
Settings: S. cerevisiae rad50 strain growth inhibition; at 50.0 µM; hits give high values
About 79,000 compounds went through this panel and 15% of them were active in at least one assay; those are over-represented in the sample as a whole.
Observation type: growth inhibition (%)
Write down the numeric answer in % and omit the unit.

These solved cases illustrate the format of a correct answer.
{"Compound": "Cn1ccc2c3ccsc3ccc21", "growth inhibition [%]": 21.8}
{"Compound": "O=C(CN1C(=O)c2ccccc2C1=O)C(O)CN1C(=O)c2ccccc2C1=O (stereo unspecified)", "growth inhibition [%]": 2.5}
{"Compound": "C1C[O][Ge]2([O]1)[O]CC[O]2", "growth inhibition [%]": -24.9}
{"Compound": "CCCNC(=S)/N=C\\c1c(O)c2ccccc2oc1=O", "growth inhibition [%]": -38.8}
{"Compound": "CCCCCCCSCC(O)COC(c1ccccc1)(c1ccccc1)c1ccccc1 (stereo unspecified)", "growth inhibition [%]": -17.5}
{"Compound": "COc1ccc(COC(=O)NC2CCCCC2)cc1OC", "growth inhibition [%]": 2.5}
{"Compound": "CC(=O)Oc1ccccc1C1CCCCC1", "growth inhibition [%]": -1.7}
{"Compound": "C=C(Cl)C(=C)CCC(Cl)C(C)C (stereo unspecified)", "growth inhibition [%]": -6.15}
{"Compound": "NC(=S)NNc1ccccc1", "growth inhibition [%]": 0.2}
{"Compound": "C=NC1CCCCC1", "growth inhibition [%]": 0.95}

What measured growth inhibition goes with Nc1cc(=O)[nH]c(=S)n1-c1ccccc1 ? -7

What measured growth inhibition goes with CC(C(c1ccccc1)C(Br)C(=O)c1ccccc1)[N+](=O)[O-] (stereo unspecified) ? 96.5

What measured growth inhibition goes with CCCCCCCCCCCCOC1OC(COC(C)=O)C(OC(C)=O)C(OC(C)=O)C1OC(C)=O (stereo unspecified) (tested in a mixture with another compound) ? -7.9

What measured growth inhibition goes with Cc1ccc2nc[nH]c(=O)c2c1 ? -1.1

What measured growth inhibition goes with CCCN/C=C1\CC(=O)N(C)C1=O ? 5.15

What measured growth inhibition goes with C/C(CC(O)(C(F)(F)Cl)C(F)(F)Cl)=N\NC(N)=S ? 29.9

What measured growth inhibition goes with CC(=N/N(C)c1ccccc1)/C(C)=N/N(C)c1ccccc1 ? 19.1

What measured growth inhibition goes with O=CC(=O)c1ccc(F)cc1 ? -20.2

What measured growth inhibition goes with CCN(CC)CC(C)=O ? -31

What measured growth inhibition goes with COc1cc(C(=O)C/C(CCC(=O)Nc2ccc(Cl)cc2Cl)=N/NC(=O)C(N)=O)ccc1O ? -12.8

What measured growth inhibition goes with COc1ccccc1NC(=O)C(=O)C1C(=O)Nc2ccccc2S1=O (stereo unspecified) ? -14.3

What measured growth inhibition goes with CCOC(=O)/C=C(/C)C#N ? -9.65

What measured growth inhibition goes with O=C(N=Nc1c(O)[nH]c2ccccc12)C(=O)N=Nc1c(O)[nH]c2ccccc12 ? -4.95

What measured growth inhibition goes with Cc1nc2cc(Nc3ccccc3C(=O)O)ccc2s1 ? -43.3

What measured growth inhibition goes with CNCCCCCCNc1cc(OC)cc2cccnc12 ? 45

What measured growth inhibition goes with O=C1CCC(C(=O)Nc2ccc(Cl)cc2Cl)N1 (stereo unspecified) ? -0.15

* * *

Readings of growth inhibition for the listed compounds
Assay: NCI Yeast Anticancer Drug Screen. Data for the mec2-1 strain (AID 157)
Settings: S. cerevisiae mec2-1 strain, at 50.0 µM, hits give high values
This is part of a sample that, as a whole, favours compounds with a hit. Of some 79,000 tested, about 15% had one in any assay.
Write down the numeric answer in % and omit the unit.

These solved cases illustrate the format of a correct answer.
{"Compound": "COCCOCOC(C)(C)CCCCl", "growth inhibition / %": 24}
{"Compound": "Cc1ccccc1N=Nc1c(C)nc(N)nc1-c1ccccc1", "growth inhibition / %": 8.6}

What measured growth inhibition goes with Cc1cc(C(F)(F)F)nc2nc3ccccc3n12 ? -18.9

What measured growth inhibition goes with COc1cccc(NC(=O)C(=O)C(C(C)=O)c2nc3ccc(Cl)cc3[nH]c2=O)c1 (stereo not given) ? 3.7

What measured growth inhibition goes with Fc1ccc(-c2nnc(-c3ccc4ccccc4c3)o2)cc1 ? -11.3

What measured growth inhibition goes with O=c1ncc2ccccc2[nH]1 ? -10.7

What measured growth inhibition goes with O=c1oc2c3ccc4ccccc4c3n(Cc3nc4ccccc4[nH]3)c2c2ccccc12 ? 12.2

What measured growth inhibition goes with CC(C)(CO)NC(=O)c1cccs1 ? 5.15

What measured growth inhibition goes with COc1cccc2c1[C@]1(O)C(O)CCCC21 (stereo not given in full) ? -6.6

What measured growth inhibition goes with CCc1c(O)nc(Nc2nc3ccccc3[nH]2)[nH]c1=O ? -21.8

What measured growth inhibition goes with CN(C)CCSC(CO)c1ccccc1 (stereo not given) ? -13.4

What measured growth inhibition goes with O=C(CCN1C(=O)c2ccccc2C1=O)c1cnc(N2C(=O)c3ccccc3C2=O)[nH]1 ? -4.45

What measured growth inhibition goes with C=CC(CO)N(CC)CC (stereo not given) ? 8.7

What measured growth inhibition goes with O=C(c1ccccc1)c1ccc(Cl)c(Cl)c1 ? -23.3

What measured growth inhibition goes with Nc1ccc(S(=O)(=O)Nc2ccccn2)cc1 ? 8.55

What measured growth inhibition goes with CN(c1ccccc1)S(=O)(=O)c1ccc(Cl)cc1 ? 19.1

What measured growth inhibition goes with CC(=O)OC/C(C)=N\NS(=O)(=O)c1cc(Cl)c(Cl)cc1Cl ? 16.4

The values you see were collected from PubChem BioAssay (NCI).
